target_or_test_system: T1, human PVRIG on cells (human, UniProt Q6DKI7 1-326)
T1 construct: whole, on cells; over-expressed on HEK cells or endogenous on Jurkat and CD8 T cells; also called hPVRIG; HEK hPVRIG cells
T1 sequence (looked up): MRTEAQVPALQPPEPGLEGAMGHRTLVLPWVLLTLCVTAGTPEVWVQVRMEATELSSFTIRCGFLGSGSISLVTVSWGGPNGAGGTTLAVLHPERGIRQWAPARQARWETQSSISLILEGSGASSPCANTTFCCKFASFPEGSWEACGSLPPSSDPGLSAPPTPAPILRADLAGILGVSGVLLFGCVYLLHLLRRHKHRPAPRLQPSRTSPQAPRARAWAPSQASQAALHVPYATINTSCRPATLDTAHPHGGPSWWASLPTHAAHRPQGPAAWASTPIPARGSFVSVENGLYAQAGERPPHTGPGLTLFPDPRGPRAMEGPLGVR
measurement_notes: FACS, human PBMC, CD56 int. NK cells, 10ug/ml
gMFIr Human CD56 int. NK vs 3: less than gives 1 (yes); not less than gives 0 (no).

| binder | class |
| --- | --- |
| CHA.7.502 (antibody, V domains shown) VH: DVQLVESGGDLVQPGGSRKLSCTASGFTFSNFGMHWVRQAPEKGLEWVAYISSGSSTIYYADTVKGRFTISRDNPENTLFLQMTSLRSEDTAMYYCTRLDYYTNSYSMDHWGQGTSVTVSS VL: QIVLTQSPALMSASPGEKVTLTCSASSSLPYIYWYQQKPGSSPKPWIYLTSNLASGVPARFSGSRSGTSYSLTISSVEAEDAATYYCQQWSSNPFTFGSGTKLEIK | 1 (yes) |
| CHA.7.503 (antibody, V domains shown) VH: QVQLQQSGAELAKPGASVKMSCKASGYTFTSNWMHWVKQRPGQGLEWIGYINPSNGYTECNQKFRDKATLSADKSSSTAYMQLNSLTSADSAVYYCALMISAWLPYWGQGTLVTVSA VL: DIVLTQSPASLAISLGQRATISCRASQSVSASSYSYVHWYQQKPGQPPKLLIKYASSLESGVPARFSGSGSGTDFTLNIHPVEEEDTATYYCLHTWEIPYTFGGGTKLEIK | 0 (no) |
| CHA.7.516 (antibody, V domains shown) VH: QVQLQQSGPELVRPGVSVKISCKVSGYTFTDYVMHWVKQSHAKSLEWIGIISPYSGNTNYNQNFKGKATMTVDKSSSTAYMALARLTSEDSAIYYCAREGDLPMFAYWGQGTLVTVSA VL: QIVLTQSPTIMSASPGEKVTMTCSASSSVSYIYWYQQNPGSSPRLLIYDTSILASGVPFRFSGSGSGTSYSLTISRMEAEDAATYYCQQWTSYPLTFGSGTKLELK | 0 (no) |
| CHA.7.522 (antibody, V domains shown) VH: QVQLQQPGSELVRPGTSVKLSCKASGYTFTSYWVHWVRQRHGQGLEWIGNVYPGSGSTNYDEKFKSKGTLTVDTSSSTAYMHLSSLTSEDSAVYYCTRGVLRFPLDYWGQGTTLTVSS VL: DIVMTQAAPSVPVTPGESVSISCRSSKSLLHSNGNTYLYWFLQRPGQSPHLLIYRMSNLASGVPDRFSGSGSGTAFTLRISRVEAEDVGVYYCMQHLEYPLTFGAGTKLELK | 1 (yes) |
| CHA.7.510 (antibody, V domains shown) VH: QVTLKESGPGILQPSQTLSLTCSFSGFSLNTSGTGVGWIRQPSGKGLEWLTHIWWNDNKFYNTFLKSRLTISKETSNNQVFLKIASVDTADAATYYCARMAYGNLWFVNWGQGTLVAVST VL: DIVLTQSPASLAVSLGQRASISCRASRSVTISGYSYMYWYQQKPGQPPRLLFYLASNLASGVPARFSGSGSGTDFTLNIHPVEEEDAAIYYCQHSRELPYTFGGGTKLEIK | 0 (no) |
